Taken from PubChem BioAssay (Tox21).

Target: Aromatase (Homo sapiens) (UniProt P11511)
Sequence (P11511 whole entry, looked up): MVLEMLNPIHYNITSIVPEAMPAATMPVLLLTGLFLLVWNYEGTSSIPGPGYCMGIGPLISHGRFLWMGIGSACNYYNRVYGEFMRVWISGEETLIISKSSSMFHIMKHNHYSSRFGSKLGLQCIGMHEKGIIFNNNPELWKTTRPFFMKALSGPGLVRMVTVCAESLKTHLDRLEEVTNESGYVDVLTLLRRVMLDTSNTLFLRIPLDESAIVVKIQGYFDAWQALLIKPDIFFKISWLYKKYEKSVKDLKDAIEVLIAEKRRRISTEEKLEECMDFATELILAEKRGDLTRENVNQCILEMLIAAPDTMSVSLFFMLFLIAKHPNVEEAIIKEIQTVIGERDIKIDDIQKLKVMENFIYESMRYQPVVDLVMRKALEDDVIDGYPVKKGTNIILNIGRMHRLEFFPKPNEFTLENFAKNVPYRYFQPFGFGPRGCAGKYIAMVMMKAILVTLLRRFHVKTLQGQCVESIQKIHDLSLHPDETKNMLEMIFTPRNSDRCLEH
Test: qHTS assay to identify aromatase inhibitors (AID 743083); note: nearly all actives have a fitted effect of over 55% in size
Details: MCF-7 aro ERE, testosterone-driven ERE luciferase, 24 h; series mostly up to 70.3 µM
Results filed as inconclusive are left out. The source made the active and inactive calls. Calls come from the whole dose curve; as a rule, active = well fitted inhibition curve with a large enough effect in the repeat runs; inconclusive = weak or mixed curves; inactive = no such curve, though single readings can be large or run the other way.
Outcome codes: TRUE (active), FALSE (inactive)

| molecule | answer.label |
| --- | --- |
| CC(=O)O[C@H]1C[C@H](O[C@H]2[C@@H](O)C[C@H](O[C@H]3[C@@H](O)C[C@H](OC4CC[C@@]5(C)C(CC[C@@H]6[C@@H]5CC[C@]5(C)[C@@H](C7=CC(=O)OC7)[C@@H](O)C[C@]65O)C4)O[C@@H]3C)O[C@@H]2C)O[C@H](C)[C@H]1O[C@@H]1O[C@H](CO)[C@@H](O)[C@H](O)[C@H]1O (stereo partly drawn) | FALSE |
| Cc1cc(C)c(N)cc1C | FALSE |
| CN1CCN=C(c2ccccc2)c2cc(Cl)ccc21 | FALSE |
| CC(=O)CC(C)C | FALSE |
| CC(C)(c1cc(Br)c(OCCO)c(Br)c1)c1cc(Br)c(OCCO)c(Br)c1 | TRUE |
| COc1cc(C[C@H](C)N)c(OC)cc1Br | FALSE |
| C[N+]12CCC(CC1)C(OC(=O)C(O)(c1ccccc1)c1ccccc1)C2 (stereo not drawn) | FALSE |
| CCC(=O)O[C@H]1[C@@H](N2CCCCC2)C[C@H]2[C@@H]3CC[C@H]4C[C@H](OC(C)=O)[C@@H](N5CCCCC5)C[C@]4(C)[C@H]3CC[C@@]21C | FALSE |
| CC[C@@]1([C@@H]2O[C@@H]([C@H]3O[C@@](O)(CO)[C@H](C)C[C@@H]3C)C[C@@H]2C)CC[C@H]([C@]2(C)CC[C@]3(C[C@H](O)[C@@H](C)[C@@H]([C@@H](C)[C@@H](OC)[C@H](C)C(=O)O)O3)O2)O1 (stereo in doubt) | FALSE |
| Nc1ncnc2c1ncn2CCOCP(=O)(O)O | FALSE |
| CNC(C)[C@@H]1CC[C@@H](N)[C@@H](O[C@H]2[C@H](O)[C@@H](O[C@H]3OC[C@](C)(O)[C@H](NC)[C@H]3O)[C@H](N)C[C@@H]2N)O1 (stereo partly drawn) | FALSE |
| C#C[C@]1(OC(=O)CCCCCC)CC[C@H]2[C@@H]3CCC4=CC(=O)CC[C@@H]4[C@H]3CC[C@@]21C | FALSE |
| CC[C@@H](O)C(C[C@@H](C)N(C)C)(c1ccccc1)c1ccccc1 | FALSE |

* * *

Biological target: Acetylcholinesterase (Homo sapiens)
Assay: Acetylcholinesterase (AChE) small molecule antagonists: colormetric cell-based qHTS assay (AID 1347395); note: nearly all actives have a fitted effect of over 30% in size
Conditions: SH-SY5Y cells AChE activity, colorimetric (Ellman); series mostly up to 115 µM
Records with an inconclusive call do not appear. Activity calls are given as the source filed them. The call rests on the fitted dose curve.
endpoint.label: outcome

| compound | endpoint.label | measured.result |
| --- | --- | --- |
| CC(C)(C)N(CCO)CCO | outcome | inactive |
| COc1cc(NS(=O)(=O)c2ccc(N)cc2)nc(C)n1 | outcome | inactive |
| CC1(C)CCC(C)(C)c2cc(NC(=O)c3ccc(C(=O)O)cc3)ccc21 | outcome | inactive |
| CC12CC3CC(C)(C1)CC(N)(C3)C2 | outcome | inactive |
| CCC1(C)NC(=O)NC1=O (stereo unspecified) | outcome | inactive |
| Cc1c(C)c2c(c(C)c1OC(=O)CCC(=O)O)CC[C@@](C)(CCC[C@H](C)CCC[C@H](C)CCCC(C)C)O2 | outcome | inactive |
